Quick list: ED50 per entry.
# System: Mus musculus
# ASSAY PROTOCOL: In vivo activity against Staphylococcus aureus smith was determined after iv administration in mice
# Assay type: functional
# MEASUREMENT CONDITIONS: Mus musculus, iv; read-out: ED50
Field format: number, assumed mg/kg, no unit text.

Exercise: Tell me ED50 reported for C[C@@H](c1ccccc1)[C@@H]1NC(=O)CNC(=O)[C@H](CO)NC(=O)[C@@H]([C@@H](O)[C@@H]2CN=C(N)N2[C@H]2O[C@H](O)[C@@H](O)[C@H](O)[C@@H]2O)NC(=O)[C@H]([C@@H](O)[C@@H]2CN=C(N)N2)NC(=O)[C@@H](Cc2ccc(O[C@H]3O[C@H](CO)[C@@H](OC4O[C@H](COCc5ccc(OCc6ccccc6)cc5)[C@@H](O)[C@H](O)[C@@H]4O)[C@H](O)[C@@H]3O)cc2)NC1=O (some centres undefined)
Solution: 0.25

Continuing:
Exercise: Look up and report measured ED50 for this entry: `CN[C@H](CC(C)C)C(=O)N[C@H]1C(=O)N[C@@H](CC(N)=O)C(=O)N[C@H]2C(=O)N[C@H]3C(=O)N[C@H](C(=O)N[C@H](C(=O)O)c4cc(O)cc(O)c4-c4cc3ccc4O)[C@H](O)c3ccc(c(Cl)c3)Oc3cc2cc(c3O[C@@H]2O[C@H](CO)[C@@H](O)[C@H](O)[C@H]2O[C@H]2C[C@](C)(N)[C@H](O)[C@H](C)O2)Oc2ccc(cc2Cl)[C@H]1O`
Solution: 0.5

Exercise: Tell me measured ED50 for `COc1ccc2cc(CO[C@H]3[C@H](O)[C@H](O)[C@@H](O[C@H]4[C@H](O)[C@H](O)[C@@H](Oc5ccc(C[C@H]6NC(=O)[C@H]([C@@H](C)c7ccccc7)NC(=O)CNC(=O)[C@H](CO)NC(=O)[C@@H]([C@@H](O)[C@@H]7CN=C(N)N7[C@H]7O[C@H](O)[C@@H](O)[C@H](O)[C@@H]7O)NC(=O)[C@H]([C@@H](O)[C@@H]7CN=C(N)N7)NC6=O)cc5)O[C@@H]4CO)O[C@@H]3CO)ccc2c1` please.
Solution: 0.06

Exercise: Quickly give me recorded ED50 for `C[C@@H](c1ccccc1)[C@@H]1NC(=O)CNC(=O)[C@H](CO)NC(=O)[C@@H]([C@@H](O)[C@@H]2CN=C(N)N2[C@H]2O[C@H](O)[C@@H](O)[C@H](O)[C@@H]2O)NC(=O)[C@H]([C@@H](O)[C@@H]2CN=C(N)N2)NC(=O)[C@@H](Cc2ccc(O[C@H]3O[C@H](CO)[C@@H](O[C@H]4O[C@H](CO)[C@@H](OCc5ccc(OCc6ccccc6)cc5)[C@H](O)[C@@H]4O)[C@H](O)[C@@H]3O)cc2)NC1=O`
Solution: 0.06

* * *

# Test system: Staphylococcus aureus
# ASSAY PROTOCOL: Minimum inhibitory concentration against Staphylococcus aureus (GC 3051) was determined
# Type: functional
RECORDED ENDPOINT: MIC (µg/mL)
Field format: number, assumed µg/mL, no unit text.

Use these answered entries as a reference point.
Exercise: Provide Staphylococcus aureus MIC reading for `COc1ccc2cc(COC[C@H]3O[C@H](O[C@H]4[C@H](O)[C@H](O)[C@@H](Oc5ccc(C[C@H]6NC(=O)[C@H]([C@@H](C)c7ccccc7)NC(=O)CNC(=O)[C@H](CO)NC(=O)[C@@H]([C@@H](O)[C@@H]7CN=C(N)N7[C@H]7O[C@H](O)[C@@H](O)[C@H](O)[C@@H]7O)NC(=O)[C@H]([C@@H](O)[C@@H]7CN=C(N)N7)NC6=O)cc5)O[C@@H]4CO)[C@@H](O)[C@@H](O)[C@@H]3O)ccc2c1` .
Solution: 0.12

Exercise: # assay system Staphylococcus aureus: give MIC of COc1ccc2cc(CO[C@H]3[C@H](O)[C@@H](CO)OC(O[C@H]4[C@H](O)[C@H](O)[C@@H](Oc5ccc(C[C@H]6NC(=O)[C@H]([C@@H](C)c7ccccc7)NC(=O)CNC(=O)[C@H](CO)NC(=O)[C@@H]([C@@H](O)[C@@H]7CN=C(N)N7[C@H]7O[C@H](O)[C@@H](O)[C@H](O)[C@@H]7O)NC(=O)[C@H]([C@@H](O)[C@@H]7CN=C(N)N7)NC6=O)cc5)O[C@@H]4CO)[C@H]3O)ccc2c1 (some centres undefined)
Solution: 2

Exercise: State MIC on Staphylococcus aureus. Entry: `COc1ccc2cc(CO[C@H]3[C@H](O)[C@H](O)[C@@H](O[C@H]4[C@H](O)[C@H](O)[C@@H](Oc5ccc(C[C@H]6NC(=O)[C@H]([C@@H](C)c7ccccc7)NC(=O)CNC(=O)[C@H](CO)NC(=O)[C@@H]([C@@H](O)[C@@H]7CN=C(N)N7[C@H]7O[C@H](O)[C@@H](O)[C@H](O)[C@@H]7O)NC(=O)[C@H]([C@@H](O)[C@@H]7CN=C(N)N7)NC6=O)cc5)O[C@@H]4CO)O[C@@H]3CO)ccc2c1`
Solution: 1

Consider the additional molecule presented here.
Exercise: Report value: MIC, system: Staphylococcus aureus, molecule: `COc1ccc2cc(CO[C@@H]3[C@@H](O[C@H]4[C@H](O)[C@H](O)[C@@H](Oc5ccc(C[C@H]6NC(=O)[C@H]([C@@H](C)c7ccccc7)NC(=O)CNC(=O)[C@H](CO)NC(=O)[C@@H]([C@@H](O)[C@@H]7CN=C(N)N7[C@H]7O[C@H](O)[C@@H](O)[C@H](O)[C@@H]7O)NC(=O)[C@H]([C@@H](O)[C@@H]7CN=C(N)N7)NC6=O)cc5)O[C@@H]4CO)O[C@H](CO)[C@@H](O)[C@@H]3O)ccc2c1`
Solution: 128
